Each recorded value in this set is attributed to patent US8324245B2.

Molecular target: met (HGF receptor) in human gastric cancer cells MKN45 (Homo sapiens)
Construct: endogenous in cells
Sequence (P08581 25-1390): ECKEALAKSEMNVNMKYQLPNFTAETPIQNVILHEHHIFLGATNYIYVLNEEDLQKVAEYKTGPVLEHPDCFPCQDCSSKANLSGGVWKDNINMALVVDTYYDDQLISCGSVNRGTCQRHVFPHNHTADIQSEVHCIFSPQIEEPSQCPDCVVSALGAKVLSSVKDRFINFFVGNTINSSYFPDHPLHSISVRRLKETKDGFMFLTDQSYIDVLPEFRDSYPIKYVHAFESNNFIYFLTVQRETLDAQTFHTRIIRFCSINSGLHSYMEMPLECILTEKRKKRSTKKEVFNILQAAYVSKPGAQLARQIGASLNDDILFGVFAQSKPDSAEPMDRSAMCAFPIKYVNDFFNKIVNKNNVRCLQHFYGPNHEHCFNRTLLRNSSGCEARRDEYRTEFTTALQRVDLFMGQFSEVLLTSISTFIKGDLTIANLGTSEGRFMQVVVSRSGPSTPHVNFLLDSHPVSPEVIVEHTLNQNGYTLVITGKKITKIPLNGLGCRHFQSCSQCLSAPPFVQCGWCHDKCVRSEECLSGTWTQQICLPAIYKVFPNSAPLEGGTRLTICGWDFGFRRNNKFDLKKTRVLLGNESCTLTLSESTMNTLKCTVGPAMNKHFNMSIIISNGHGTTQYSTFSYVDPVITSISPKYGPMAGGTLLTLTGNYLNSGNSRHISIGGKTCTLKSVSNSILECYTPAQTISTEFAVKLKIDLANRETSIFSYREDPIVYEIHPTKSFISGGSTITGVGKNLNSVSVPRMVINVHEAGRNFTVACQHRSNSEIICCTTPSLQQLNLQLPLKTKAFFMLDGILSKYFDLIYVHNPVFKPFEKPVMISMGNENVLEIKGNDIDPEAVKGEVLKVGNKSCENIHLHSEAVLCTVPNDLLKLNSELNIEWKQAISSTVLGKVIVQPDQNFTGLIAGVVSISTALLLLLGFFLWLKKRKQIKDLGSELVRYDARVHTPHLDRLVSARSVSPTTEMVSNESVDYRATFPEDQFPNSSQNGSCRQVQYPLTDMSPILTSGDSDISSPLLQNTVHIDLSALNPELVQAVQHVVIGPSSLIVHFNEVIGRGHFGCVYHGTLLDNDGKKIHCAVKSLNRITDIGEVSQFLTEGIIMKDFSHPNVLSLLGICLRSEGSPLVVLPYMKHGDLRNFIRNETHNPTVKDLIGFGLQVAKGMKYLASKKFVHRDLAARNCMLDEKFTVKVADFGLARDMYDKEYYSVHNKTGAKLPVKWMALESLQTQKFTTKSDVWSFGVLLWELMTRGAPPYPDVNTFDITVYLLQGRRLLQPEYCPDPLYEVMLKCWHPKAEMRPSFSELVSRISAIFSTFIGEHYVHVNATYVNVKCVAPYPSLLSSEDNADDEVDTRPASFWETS
Assay: Inhibitory activity against met-autophosphorylation using ELISA method (2), MKN45 cells, HGF-independent
Consider the following compounds and their measured pIC50 readings.
Answer as the number alone; pIC50 is minus log10 of concentration in mol/L.

compound=COc1cc2nccc(Oc3ccc(NC(=O)NC(=O)Cc4cccc(F)c4F)c(F)c3)c2cc1OC assay_target="met (HGF receptor) in human gastric cancer cells MKN45 (Homo sapiens)" observed_measurement=6.55

[in] Would you mind telling me what pIC50 value was observed for "COc1cc2nccc(Oc3ccc(NC(=O)NC(=O)Cc4ccc(F)cc4)cc3Cl)c2cc1OC" ?
[out] 7.56

[in] Would you mind telling me what pIC50 value was observed for "COc1cc2c(Oc3ccc(NC(=O)NC(=O)Cc4ccccc4)c(F)c3)ccnc2cc1OCCCN1CCOCC1" ?
[out] 7.65

[in] Would you mind telling me what pIC50 value was observed for COc1cc2c(Oc3ccc(NC(=S)NC(=O)Cc4ccccc4F)cc3F)ccnc2cc1OCC(O)CN1CCCCC1 (centres unmarked) ?
[out] 7.55

[in] Would you mind telling me what pIC50 value was observed for "COc1cc2nccc(Oc3ccc(NC(=O)CC(=O)NC4CCC4)cc3)c2cc1OC" ?
[out] 6.42

[in] Would you mind telling me what pIC50 value was observed for "COc1cc2nccc(Oc3ccc(NC(=S)NC(=O)Cc4cccc(Cl)c4)c(F)c3)c2cc1OC" ?
[out] 6.37

[in] Would you mind telling me what pIC50 value was observed for "COc1cc2c(Oc3ccc(NC(=S)NC(=O)Cc4cccc(F)c4)cc3Cl)ccnc2cc1OCCCN1CCOCC1" ?
[out] 7.36

[in] Would you mind telling me what pIC50 value was observed for COc1cc2nccc(Oc3ccc(NC(=S)NC(=O)CC4CCC(C)CC4)c(F)c3)c2cc1OC (centres unmarked) ?
[out] 6.01
